# assayedTarget: PDK1 (Homo sapiens, UniProt O15530)
# Sequence (O15530 51-556 limits assumed): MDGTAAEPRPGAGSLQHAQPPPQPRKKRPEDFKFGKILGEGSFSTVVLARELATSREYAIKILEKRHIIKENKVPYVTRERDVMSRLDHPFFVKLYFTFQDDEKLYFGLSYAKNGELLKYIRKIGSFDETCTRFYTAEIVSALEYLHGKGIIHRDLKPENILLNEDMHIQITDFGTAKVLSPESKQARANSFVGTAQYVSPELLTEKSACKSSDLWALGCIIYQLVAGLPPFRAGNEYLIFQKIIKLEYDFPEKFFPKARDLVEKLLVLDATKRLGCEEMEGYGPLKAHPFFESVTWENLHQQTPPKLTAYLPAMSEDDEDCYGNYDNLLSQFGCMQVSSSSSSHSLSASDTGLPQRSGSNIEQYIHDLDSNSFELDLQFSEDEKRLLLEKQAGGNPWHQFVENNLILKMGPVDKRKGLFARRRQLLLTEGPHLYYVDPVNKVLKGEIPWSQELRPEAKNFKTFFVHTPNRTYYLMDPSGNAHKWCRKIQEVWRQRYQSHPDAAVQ
The reader will find reported pIC50 values listed item by item below.
Reminder that pIC50 is minus the log10 of a molar concentration.

- COCO[C@@](C)(c1cccc(F)c1)c1cc(-c2c[nH]c3ncc(Br)cc23)nc(N)n1: 6.02

Lab entry: PDK1 (Homo sapiens, UniProt O15530) assay, compound CCC(O)(c1ccncc1)c1cc(-c2c[nH]c3ncc(-c4cnn(C)c4)cc23)nc(N)n1 (stereo not shown) [A28] , pIC50 = 8.16

Lab entry: PDK1 (Homo sapiens, UniProt O15530) assay, compound CC[C@](O)(c1cc(-c2c[nH]c3ncc(-c4cnn(C)c4)cc23)nc(N)n1)c1cccc(F)c1F (single isomer, unassigned) , pIC50 = 8.10

Lab entry: PDK1 (Homo sapiens, UniProt O15530) assay, compound COCO[C@@](C)(c1ccncc1)c1cc(-c2c[nH]c3ncc(Br)cc23)nc(N)n1 (single isomer, unassigned) , pIC50 = 6.66

* * *

The reader will find reported IC50 values listed item by item below.
# Tested on: PDK1 kinase activity (phospho-T308-PKB) in PC3 cells
# method: Cellular testing of PDK1 kinase inhibitors in PC3 cells (Luminex, phospho-T308-PKB)
# Format: cell-based
# conditionContext: Homo sapiens, PC-3, 0.5 h, 30 min incubation, serum-free, read-out: IC50 PC3 cells [P-PKB T308]
# Experimental: Method for the Cellular Testing of PDK1 Kinase Inhibitors in PC3 Cells. The cellular assay for the determination of the PDK1 kinase activity is carried out as a Luminex assay in the 96-well format. […] The values of the batches treated with test substance are calculated therefrom as percentage of control, and IC50 values are determined by means of RS1.

IC50 recorded for this compound, Cn1cc(-c2cnc3[nH]cc(-c4cc(C(O)(c5ccccc5)C(F)(F)F)nc(N)n4)c3c2)cn1 (centres unmarked) [A69] , is 240 nM

* * *

The reader will find reported IC50 values listed item by item below.
# Tested on: PDK1 kinase activity (phospho-T308-PKB) in PC3 cells
# method: Cellular testing of PDK1 kinase inhibitors in PC3 cells (Luminex, phospho-T308-PKB)
# Format: cell-based
# conditionContext: Homo sapiens, PC-3, 0.5 h, 30 min incubation, serum-free, read-out: IC50 PC3 cells [P-PKB T308]
Give your result in nM as a bare value.

- CCCC(OCOC)(c1cccc(F)c1)c1cc(-c2c[nH]c3ncc(-c4cnn(C)c4)cc23)nc(N)n1 (stereo not shown): 980
- CCC(O)(c1ccncc1)c1cc(-c2c[nH]c3ncc(-c4cn[nH]c4)cc23)nc(N)n1 (stereo not shown): 692
- COc1ccc(C(C)(O)c2cc(-c3c[nH]c4ncc(-c5cnn(C)c5)cc34)nc(N)n2)cn1 (stereo not shown): 1300
- Cn1cc(-c2cnc3[nH]cc(-c4cc(C(C)(O)c5ccncc5)nc(N)n4)c3c2)cn1 (single isomer, unassigned): 980
- CC(O)(c1ccccc1)c1cc(-c2c[nH]c3ncc(-c4cnn(C5CCNCC5)c4)cc23)nc(N)n1 (stereo not shown): 1200

IC50 recorded for this compound, CC(O)(c1cccc(F)c1)c1cc(-c2c[nH]c3ncc(-c4cnn(C(C)(C)C)c4)cc23)nc(N)n1 (stereo not shown) , is 1100

Source listed as patent US8575163B2.
